Task for the reader: assign each of the following compounds its reported IC50.
Target: GIST430/654 cell line expressing mutated constitutively active cKIT receptor tyrosine kinase (Δ560-576 deletion and V654A point mutation) (Homo sapiens, UniProt P10721, DEL560-576/V654A)
Construct: endogenous in cells
Sequence (P10721 with tags, fused parts or gaps DEL560-576/V654A): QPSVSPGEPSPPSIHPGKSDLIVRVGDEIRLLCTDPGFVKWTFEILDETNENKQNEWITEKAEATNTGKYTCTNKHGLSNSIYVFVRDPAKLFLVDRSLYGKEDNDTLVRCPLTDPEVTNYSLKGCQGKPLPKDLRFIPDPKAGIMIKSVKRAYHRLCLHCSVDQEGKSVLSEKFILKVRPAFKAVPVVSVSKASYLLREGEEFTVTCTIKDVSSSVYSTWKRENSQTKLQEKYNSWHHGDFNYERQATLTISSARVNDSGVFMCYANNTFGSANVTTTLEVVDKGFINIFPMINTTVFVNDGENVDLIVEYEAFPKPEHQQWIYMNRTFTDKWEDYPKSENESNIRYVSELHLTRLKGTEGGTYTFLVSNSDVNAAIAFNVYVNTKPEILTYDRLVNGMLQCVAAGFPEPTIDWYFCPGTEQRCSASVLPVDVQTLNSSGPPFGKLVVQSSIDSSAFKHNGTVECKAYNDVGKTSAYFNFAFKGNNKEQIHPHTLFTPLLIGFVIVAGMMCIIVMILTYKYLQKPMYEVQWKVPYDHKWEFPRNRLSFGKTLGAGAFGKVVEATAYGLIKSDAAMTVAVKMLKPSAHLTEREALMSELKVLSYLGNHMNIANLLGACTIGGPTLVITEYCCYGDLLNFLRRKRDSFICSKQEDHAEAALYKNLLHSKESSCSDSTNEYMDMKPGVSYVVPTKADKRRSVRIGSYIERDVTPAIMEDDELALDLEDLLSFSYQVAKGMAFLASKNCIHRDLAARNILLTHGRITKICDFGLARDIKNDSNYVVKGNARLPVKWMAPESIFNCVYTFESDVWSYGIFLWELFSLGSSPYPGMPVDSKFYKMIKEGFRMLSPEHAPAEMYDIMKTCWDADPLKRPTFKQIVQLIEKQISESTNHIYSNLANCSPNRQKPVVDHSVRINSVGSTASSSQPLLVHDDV
Experiment: Cellular cKIT autophosphorylation (phospho-Y307-cKIT, Luminex bead assay) in GIST430/654 cells
Settings: compounds 45 min, read-out: GIST 430/654 IC50
Numbers only, in nM.

// known answers, use as guide
1. Cn1cc(-c2ccc(CNc3cc(-c4cnc5cc(N6CCC7(COC7)C6)ccn45)ncn3)cc2)cn1 : 62
2. Cn1cc(-c2ccc(CNc3cc(-c4cnc5cc(OCC(C)(C)O)ccn45)ncn3)cc2)cn1 : 84
3. Cn1ncc(-c2ccc(CNc3cc(-c4cnc5cc(OCCCN6CCOCC6)ccn45)ncn3)cc2)n1 : 30
4. Cn1cc(-c2ccc(CNc3cc(-c4cnc5cc(OCC6CN(C7COC7)C6)ccn45)ncn3)cc2)cn1 : 27
5. Cn1cc(-c2ccc(CNc3cc(-c4cnc5cc(OCc6ccccc6)ccn45)ncn3)cc2)cn1 : 540
6. Cc1ccn2c(-c3cc(NCc4ccc(-c5cnn(C)c5)cc4)ncn3)cnc2c1 : 190

Provide IC50 values for the following items, in order.
1. Cc1noc(C2CN(CCOc3ccn4c(-c5cc(NCc6ccc(-c7cnn(C)c7)cc6)ncn5)cnc4c3)C2)n1
2. CCN(CC)CCCOc1ccn2c(-c3cc(NCc4ccc(-c5cnn(C)c5)cc4)ncn3)cnc2c1
3. Cn1ncc(-c2ccc(CNc3cc(-c4cnc5cc(OCCCN6CCN(C7COC7)CC6)ccn45)ncn3)cc2)n1
4. Cn1ncc(-c2ccc(CNc3cc(-c4cnc5cc(OCCCN6CC7(COC7)C6)ccn45)ncn3)cc2)n1
5. Cn1cc(-c2ccc(CNc3cc(-c4cnc5cc(OCC6CCNCC6)ccn45)ncn3)cc2)cn1

1. 180
2. 45
3. 59
4. 94
5. 120

###

Target: GIST430/654 cell line expressing mutated constitutively active cKIT receptor tyrosine kinase (Δ560-576 deletion and V654A point mutation) (Homo sapiens, UniProt P10721, DEL560-576/V654A)
Construct: endogenous in cells
Test: Cellular cKIT autophosphorylation (phospho-Y307-cKIT, Luminex bead assay) in GIST430/654 cells
Conditions: compounds 45 min, read-out: GIST 430/654 IC50
measurement-type: pIC50
Answers are plain numbers, as −log10 of the molar value.

// known answers, use as guide
1) Cn1cc(-c2ccc(CNc3cc(-c4cnc5cc(OCCCN6CCN(C7CC7)CC6)ccn45)ncn3)cc2)cn1 : 7.40
2) COc1ccn2c(-c3cc(NCc4ccc(-c5nc(C)no5)cc4)ncn3)cnc2c1 : 6.72
3) c1ccn2c(-c3cc(NCc4ccc(-c5ncc[nH]5)cc4)ncn3)cnc2c1 : 5.82

Provide pIC50 values for the following items, in order.
1. Cn1cc(-c2ccc(CNc3cc(-c4cnc5cc(OCCN6CCC[C@@H]7OCC[C@@H]76)ccn45)ncn3)cc2)cn1
2. Cn1cc(-c2ccc(CNc3cc(-c4cnc5cc(OCCN6CCn7cccc7C6)ccn45)ncn3)cc2)cn1
3. COCCOc1ccn2c(-c3cc(NCc4ccc(-c5cnn(C)c5)cc4)ncn3)cnc2c1
4. Cn1cc(-c2ccc(CNc3cc(-c4cnc5cc(OCCN6CCN(C7COC7)CC6=O)ccn45)ncn3)cc2)cn1
5. Cc1nnc2n1CCN(CCOc1ccn3c(-c4cc(NCc5ccc(-c6cnn(C)c6)cc5)ncn4)cnc3c1)C2
6. Cn1ncc(-c2ccc(CNc3cc(-c4cnc5cc(OCC6CCN(C7CC7)CC6)ccn45)ncn3)cc2)n1
7. Cn1cc(-c2ccc(CNc3cc(-c4cnc5cc(OCCN6CCC(F)C6)ccn45)ncn3)cc2)cn1 (centres unmarked)
8. CN1CCN(CCOc2ccn3c(-c4cc(NCc5ccc(-c6cnn(C)c6)cc5)ncn4)cnc3c2)C(=O)C1

7.00
6.70
7.32
6.68
6.40
7.10
7.09
7.07

Provide pIC50 values for the following items, in order.
1. Cn1cc(-c2ccc(CNc3cc(-c4cnc5cc(OCCCN6CCC(F)(F)C6)ccn45)ncn3)cc2)cn1
2. Cn1ncc(-c2ccc(CNc3cc(-c4cnc5cc(OCCCN6CCCC6)ccn45)ncn3)cc2)n1
3. CCn1cc(-c2ccc(CNc3cc(-c4cnc5cc(OC)ccn45)ncn3)cc2)cn1

1. 6.82
2. 7.35
3. 7.18
